Where these numbers come from: patent US11208400B2

Target: human Npt2a (Homo sapiens)
Sequence (Q06495 1-639): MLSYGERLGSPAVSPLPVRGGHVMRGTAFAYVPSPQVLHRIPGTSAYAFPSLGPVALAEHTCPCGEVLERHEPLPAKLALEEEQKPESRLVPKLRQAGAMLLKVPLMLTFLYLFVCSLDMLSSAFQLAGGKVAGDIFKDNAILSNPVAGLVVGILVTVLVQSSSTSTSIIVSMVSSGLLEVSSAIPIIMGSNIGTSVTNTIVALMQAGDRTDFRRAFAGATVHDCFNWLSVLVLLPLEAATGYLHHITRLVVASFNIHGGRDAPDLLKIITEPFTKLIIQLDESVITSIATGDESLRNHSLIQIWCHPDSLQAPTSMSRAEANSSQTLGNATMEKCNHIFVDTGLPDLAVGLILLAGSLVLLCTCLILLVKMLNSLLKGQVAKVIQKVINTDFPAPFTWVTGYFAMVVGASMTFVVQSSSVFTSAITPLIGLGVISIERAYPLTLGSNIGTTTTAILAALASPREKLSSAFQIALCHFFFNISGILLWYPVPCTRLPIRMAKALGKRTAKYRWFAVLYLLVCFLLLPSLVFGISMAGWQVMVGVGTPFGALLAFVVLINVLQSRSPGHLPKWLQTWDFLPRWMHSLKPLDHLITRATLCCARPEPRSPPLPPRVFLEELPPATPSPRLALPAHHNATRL
Test: Npt2a activity cell based assay, membrane potential dye, CHO T-REx hNpt2a cells
Settings: doxycycline-induced, depolarization by sodium phosphate influx, average or median values if tested more than once
Under this convention, TRUE denotes IC50 strictly below 30 nM and FALSE denotes IC50 at or above 30 nM.

Lookup: State whether 30 nM exceeds IC50 recorded for CCc1c(Nc2cc(-n3cc4c(n3)CCCC4)ncn2)n[nH]c1-c1ccc(F)cc1 .
Found: FALSE

Lookup: State whether 30 nM exceeds IC50 recorded for CCOC(=O)Cc1c(C)nn(-c2cc(Nc3c(C)nn(-c4ccc(C#N)cc4)c3C)ncn2)c1C .
Found: FALSE

Lookup: State whether 30 nM exceeds IC50 recorded for COc1c(-c2ccc(F)cc2)nn(CC2CC2)c1Nc1cc(-n2nc(C)cc2C)ncn1 .
Found: FALSE

Lookup: State whether 30 nM exceeds IC50 recorded for CCOC(=O)c1c(C)nn(-c2cc(Nc3c(C)c(-c4ccc(OC(F)(F)F)cc4)nn3C)ncn2)c1C .
Found: FALSE

Lookup: State whether 30 nM exceeds IC50 recorded for Cc1cc(C(F)F)n(-c2cc(Nc3c(Cl)c(-c4ccc(C#N)cc4)nn3CC3CC3)ncn2)n1 .
Found: TRUE

----------
molecular target: human Npt2a (Homo sapiens, UniProt Q06495); construct: expressed in transfected cells; experiment: Npt2a activity cell based assay, membrane potential dye, CHO T-REx hNpt2a cells; settings: doxycycline-induced, depolarization by sodium phosphate influx, average or median values if tested more than once
# class assignment by measured IC50: class 0 (below 8 nM), class 1 (8 nM to below 70 nM), class 2 (70 nM or more)

Cc1cc(C(F)F)n(-c2cc(Nc3nn(C)c(-c4ccc(C#N)cc4)c3C)ncn2)n1 ... class 0
Cc1nnc(-c2c(C)nn(-c3cc(Nc4c(C)c(-c5ccc(F)cc5)nn4CC4CC4)ncn3)c2C)o1 ... class 0
COc1c(-c2ccc(C#N)cc2)nn(CC2CC2)c1Nc1cc(-n2nc(C)c(C(C)O)c2C)ncn1 (racemic) [Example 331] ... class 2
COC(C)c1c(C)nn(-c2cc(Nc3c(C)c(-c4ccc(F)cc4)nn3CC3CC3)ncn2)c1C (racemic) [Example 326] ... class 0
Cc1nn(-c2cc(Nc3c(C)c(-c4ccc(C(F)F)cc4)nn3CC3CC3)ncn2)c(C)c1C(O)C1CC1 (single isomer, unassigned) [Example 496] ... class 2

Lookup: Which IC50 category applies to CCc1c(-c2ccc(F)cc2)nn(C)c1Nc1cc(-n2nc(C)c(-c3nnc(C)o3)c2C)ncn1 here?
Found: class 2

Lookup: Which IC50 category applies to CCC(O)c1c(C)nn(-c2cc(Nc3c(C)c(-c4ccc(F)cc4)nn3CC3CC3)ncn2)c1C (racemic) here?
Found: class 1

Lookup: Which IC50 category applies to CCc1c(Nc2cc(-n3nc(C)c(C(C)(C)O)c3C(F)F)ncn2)nn(C)c1-c1ccc(F)cc1 here?
Found: class 2

Lookup: Which IC50 category applies to COc1c(-c2ccc(C#N)cc2)nn(C)c1Nc1cc(-n2nc(C)cc2C(F)F)ncn1 here?
Found: class 2

Lookup: Which IC50 category applies to Cc1c(-c2ccc(C#N)cc2)nn(CC2CC2)c1Nc1cc(-n2cc(C(F)(F)F)cn2)ncn1 here?
Found: class 1

Lookup: Which IC50 category applies to Cc1nn(-c2cc(Nc3c(C)c(-c4ccc(F)cc4)nn3CC3CC3)ncn2)c(C)c1CC(C)(C)O here?
Found: class 1

Lookup: Which IC50 category applies to Cc1c(-c2ccc(F)cc2)nn(CC2CC2)c1Nc1cc(-n2nc3c(c2C)C(=O)CC3)ncn1 here?
Found: class 1

Lookup: Which IC50 category applies to Cc1nn(-c2cc(Nc3nn(C)c(-c4ccc(F)cc4F)c3Cl)ncn2)c2ccccc12 here?
Found: class 2

----------
Biological target: UniProt:Q06495
Sequence (Q06495 1-639): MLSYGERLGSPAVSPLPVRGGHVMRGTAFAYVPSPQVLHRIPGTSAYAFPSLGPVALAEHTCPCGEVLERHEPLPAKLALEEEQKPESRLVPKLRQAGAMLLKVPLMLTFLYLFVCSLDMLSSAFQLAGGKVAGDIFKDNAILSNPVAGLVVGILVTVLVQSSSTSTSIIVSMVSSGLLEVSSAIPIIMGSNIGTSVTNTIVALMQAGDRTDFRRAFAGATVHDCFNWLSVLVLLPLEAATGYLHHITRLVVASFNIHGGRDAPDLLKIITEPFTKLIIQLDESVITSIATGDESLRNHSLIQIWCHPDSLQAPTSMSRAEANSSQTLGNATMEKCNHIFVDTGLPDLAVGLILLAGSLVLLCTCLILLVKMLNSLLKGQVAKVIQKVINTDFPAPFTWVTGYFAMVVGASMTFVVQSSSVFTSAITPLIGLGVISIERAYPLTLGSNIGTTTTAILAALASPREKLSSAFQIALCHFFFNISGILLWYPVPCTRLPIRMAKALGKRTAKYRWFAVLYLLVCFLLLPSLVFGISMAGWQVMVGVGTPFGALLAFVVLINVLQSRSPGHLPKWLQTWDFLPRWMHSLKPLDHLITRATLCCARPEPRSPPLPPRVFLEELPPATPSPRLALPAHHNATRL
Assay: Npt2a activity cell based assay, membrane potential dye, CHO T-REx hNpt2a cells
Details: doxycycline-induced, depolarization by sodium phosphate influx, average or median values if tested more than once
Under this convention, class 1 denotes IC50 strictly below 50 nM and class 0 denotes IC50 at or above 50 nM.

Cc1nn(-c2cc(Nc3c(C)c(-c4ccc(OC(F)F)cc4)nn3CC3CC3)ncn2)c(C)c1Cl [Example 398] ... class 1

Lookup: State whether 50 nM exceeds IC50 recorded for CCc1c(Nc2cc(-n3nc(C)c(C)c3O)ncn2)nn(C)c1-c1ccc(F)cc1 [Example 25] .
Found: class 0

Lookup: State whether 50 nM exceeds IC50 recorded for Cc1cc(C)n(-c2cc(Nc3nn(C)c(-c4ccc(F)cc4)c3OC(F)F)ncn2)n1 [Example 400] .
Found: class 1

----------
Measured pIC50, listed per entry for reference.
molecular target: human Npt2a (Homo sapiens); assay: Npt2a activity cell based assay, membrane potential dye, CHO T-REx hNpt2a cells; conditions: doxycycline-induced, depolarization by sodium phosphate influx, average or median values if tested more than once
On this scale, pIC50 is minus log10 of a concentration expressed in M (mol/L).

Cc1c(-c2ccc(F)cc2)nn(C)c1Nc1cc(-n2cc(C(F)(F)F)cn2)ncn1 ... 7.82
COc1c(C)nn(-c2cc(Nc3nn(C)c(-c4ccc(C#N)cc4)c3C)ncn2)c1C ... 8.30
COCCn1nc(-c2ccc(C(F)F)cc2)c(C)c1Nc1cc(-n2nc(C)c(OC)c2C)ncn1 ... 7.70
COc1c(C)nn(-c2cc(Nc3c(C)c(-c4ccc(F)cn4)nn3C)ncn2)c1C ... 6.52
CCOC(=O)Cc1c(C)nn(-c2cc(Nc3c(C)c(-c4ccc(F)cc4)nn3CC3CC3)ncn2)c1C ... 7.80

Lookup: What does the record list as pIC50 for Cc1c(-c2ccc(C#N)cc2)nn(CC2CC2)c1Nc1cc(-n2nc(C(C)C)cc2C)ncn1 ?
Found: 7.03

Lookup: What does the record list as pIC50 for Cc1cc(C)n(-c2cc(Nc3c(C)c(-c4ccc(C#N)cc4)nn3CC(F)F)ncn2)n1 ?
Found: 6.74

Lookup: What does the record list as pIC50 for Cc1cc(C)n(-c2cc(Nc3nn(C)c(-c4ccccc4)c3C)ncn2)n1 ?
Found: 6.87
